Hello, the source for this data is PubChem BioAssay, in case you need it.

Assay: viability gain of MRP-1-high H69AR cells under doxorubicin, pilot screen, MRP-1 activator project, CellTiter-Glo, duplicate (AID 807);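 also: compound pretreatment 18-22 h then 72 h combined with doxorubicin; 0% = doxorubicin alone and 100% = vehicle without doxorubicin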
Settings: H69AR viability with doxorubicin, CellTiter-Glo luminescence; at 10 µM; hits give high values
Property name: viability increase (%)
One number for each entry, in %.

Cn1c(=O)oc2cc(S(=O)(=O)N3CCCC(C(=O)N4CC=C(c5ccccc5)CC4)C3)ccc21 (stereo not drawn); -1.04
Cc1cccn2cc(CCNC(=O)c3ccc(Br)o3)nc12; -1.61
CN(CC(=O)NC1CCCc2ccccc21)S(=O)(=O)c1ccc2c(c1)c(=O)n(C)c(=O)n2C (stereo not drawn); -3.54
CCC1(C)Cc2nc3sc(C(=O)O)c(N)c3cc2CO1 (stereo not drawn); -3.61

Batch lookup, viability increase per entry.
1. O=C(NCCc1csc(-c2cccnc2)n1)c1ccco1
2. CCn1c(=O)c2cc(C(=O)N3CCN(C(=O)c4ccco4)CC3)sc2c2ccccc21
3. O=C(NCc1ccccc1)c1cc(S(=O)(=O)N2CCOCC2)ccc1F
4. CCn1c(CNC(=O)C23CC4CC(CC(C4)C2)C3)nnc1SCC(=O)Nc1nnc(C)s1
5. O=C(O)CNS(=O)(=O)c1ccc(F)cc1
6. Cc1nc2sc(C(c3ccco3)N3CCN(c4ccccc4)CC3)c(O)n2n1 (stereo not drawn)
7. CCOc1ccc(N(CC(=O)Nc2ccc(OC)cc2)S(=O)(=O)c2c(C)noc2C)cc1
8. COc1cccc(N2CCN(C(=O)c3ccc4nc(N5CCCCC5)sc4c3)CC2)c1

Marked response:
1: -4.68; 2: -3.68; 3: 0.27; 4: 0.62; 5: -0.77; 6: 3.13; 7: -3.3; 8: 0.85
